# Test system: RPMI-8226 leukemia
# protocol_description: NCI tumour cell line growth inhibition, 48 h
readout_name: TGI

Check RPMI-8226 leukemia data and give TGI for COc1ccc(CC2CCc3nc(N)nc(N)c3C2)cc1OC (stereo unspecified) .
> 100 µM

Check RPMI-8226 leukemia data and give TGI for CC1CN1C(=O)NCCCCCCNC(=O)N1CC1C (stereo unspecified) .
> 100 µM

Check RPMI-8226 leukemia data and give TGI for COC(=O)c1cc2c(cc1CC1Cc3cc4c(cc3C1=O)CCC4)CCC2 (stereo unspecified) .
> 100 µM

Check RPMI-8226 leukemia data and give TGI for "Cc1c(C(=O)C/C(=N/NC(=O)C[N+](C)(C)C)C(=O)Nc2ccc(Cl)cc2)[n+](=O)c2ccccc2n1O" .
> 100 µM

Check RPMI-8226 leukemia data and give TGI for "O=C1CSSCC(=O)Nc2ccccc2N1" .
> 100 µM

Check RPMI-8226 leukemia data and give TGI for "O=c1[nH]c(=O)n(CCOc2ccccc2)cc1Nc1ccccc1" .
> 100 µM

Check RPMI-8226 leukemia data and give TGI for "C#CCNC(=O)c1cccc2c1cc(C)n2-c1nc2c(c(NCc3ccccc3)n1)CCCC2" .
0.0537 µM

Check RPMI-8226 leukemia data and give TGI for CC(C)(C)OC(=O)CN1C(=O)CC1CC(=O)c1ccccc1 (stereo unspecified) .
15.3 µM

Check RPMI-8226 leukemia data and give TGI for "COc1ccc(C(=O)c2sc(N(C)C)nc2-c2ccccc2)cc1" .
> 100 µM

Check RPMI-8226 leukemia data and give TGI for O=C(CC1(O)C(=O)Nc2c(Cl)ccc(Cl)c21)c1ccc(F)cc1 (stereo unspecified) .
47.9 µM

Check RPMI-8226 leukemia data and give TGI for CCOCc1c(C)cc(C)c(C2C(C(=O)c3ccccc3)N3c4ccccc4C=CC3C2(C#N)C(=O)OCC)c1C (stereo unspecified) .
> 100 µM

----------
# Tested on: MOLT-4 leukemia
# protocol_description: NCI tumour cell line growth inhibition, 48 h; in the data active means GI50 below about 0.43 µM; inactive means the rest
Mark one answer only. Choices: active, inactive

How was "COc1ccc2c(c1)CCCN2c1c2ccccc2nc2ccccc12" classified in this test?
active

How was "COc1ccc2c(c1)C(=O)c1c-2n(CCCn2ccnc2)c(=O)c2cc([N+](=O)[O-])ccc12" classified in this test?
active

How was "CCCCCCCCn1ccc2cc(NC(=O)Cn3cc(CN4CCCC4)nn3)ccc21" classified in this test?
inactive

How was "O=C(Nc1ccncc1)C(=O)c1cn(S(=O)(=O)c2cccc(F)c2)c2ccccc12" classified in this test?
inactive

How was "O=C(Nc1ccc(-c2nc(N3CCOCC3)c3cccn3n2)cc1)Nc1cccnc1" classified in this test?
active

----------
# Tested on: MOLT-4 leukemia
# protocol_description: NCI tumour cell line growth inhibition, 48 h
Exercise: for every item that follows, state its recorded TGI.

Note TGI for the molecule shown: "O=S(=O)(NC1=NCCN1C(=S)SN1CCn2c1nsc2=S)c1cccc(Cl)c1"
> 100 µM

Note TGI for the molecule shown: "O=C(CCc1cc(-c2ccccc2)nc(=S)[nH]1)N(Cc1ccccc1)Cc1ccccc1"
> 100 µM

Note TGI for the molecule shown: "O=C1NC(=O)C(CCC(=O)c2ccc3ccccc3c2)C(=O)N1"
> 100 µM

Note TGI for the molecule shown: "CC(=O)c1sc2c(c1OC(=O)c1ccco1)c(=O)n(-c1ccccc1)c(=S)n2-c1ccccc1"
53.8 µM

Note TGI for the molecule shown: "O=C1N[C@H]2c3c(Cl)sc(Cl)c3[C@@H](O)[C@H]2O1"
> 100 µM

Note TGI for the molecule shown: "COC(=O)Nc1nc2ccc(Oc3ccc(NC(=O)Nc4cc(C(F)(F)F)ccc4F)cc3)cc2s1"
> 25 µM

Note TGI for the molecule shown: "CCOC(=O)c1oc2cc3c(c4c2c1-c1ccccc1N4C)C=CC(C)(C)O3"
> 100 µM

Note TGI for the molecule shown: "O=C(N/C(=C\c1cccc([N+](=O)[O-])c1)c1nc2ccc([N+](=O)[O-])cc2[nH]1)c1ccccc1"
51.4 µM

Note TGI for the molecule shown: "c1ccc(-c2nc3ccccc3n3c(CN4CCCCC4)nnc23)cc1"
> 100 µM

Note TGI for the molecule shown: "O=C1Nc2ccccc2C1(c1ccc(O)cc1)c1ccc(O)cc1"
98.1 µM

Note TGI for the molecule shown: OC1(c2ccc(Cl)cc2)C(N2CCCC2)c2ccccc2C2=NCCN21 (stereo not drawn)
93.8 µM

Note TGI for the molecule shown: CC(C)(C)C(=O)OCOP(=O)(OCOC(=O)C(C)(C)C)OCC1OC(n2ccc(=O)[nH]c2=O)C(N=[N+]=[N-])C1O (stereo not drawn)
31.4 µM

Note TGI for the molecule shown: "CN(C)c1ccc(/C=C2/NC(=S)NC2=O)cc1"
> 100 µM

----------
Exercise: for every item that follows, state its recorded TGI.
# Tested on: MCF7 breast
# protocol_description: NCI tumour cell line growth inhibition, 48 h

Check MCF7 breast data and give TGI for "CS(=O)(=O)CCNCc1ccc(-c2ccc3ncnc(Nc4ccc(OCc5ccccc5)cc4)c3c2)o1" .
> 17.7 µM

Check MCF7 breast data and give TGI for COC(=O)C1=C(O)C(C(=O)OC)[C@]2(O)[C@H](C(=O)OC)[C@H]1C[C@@H](c1ccc(OC)c(OC)c1)[C@H]2C(=O)OC (stereo not given in full) .
> 100 µM

Check MCF7 breast data and give TGI for "O=C(O)CCC(=O)Nc1ccc2ccccc2c1" .
> 100 µM

Check MCF7 breast data and give TGI for Cc1ccc(C(=O)N(CCCN)C(c2oc3cc(Cl)ccc3c(=O)c2Cc2ccccc2)C(C)C)cc1 (stereo not given) .
1.39 µM

Check MCF7 breast data and give TGI for "c1ccc2c(c1)CC1=C(O2)c2ccccc2OC1" .
> 100 µM

Check MCF7 breast data and give TGI for COC(=O)c1cc(C)ccc1C1CN=NC12Cc1ccc(C)cc1C2=O (stereo not given) .
85.8 µM

Check MCF7 breast data and give TGI for "C[N+](C)(C)CCCSc1nc2ccccc2[nH]1" .
> 100 µM

Check MCF7 breast data and give TGI for Cc1ccc([N+](=O)[O-])cc1S(=O)(=O)Nc1ccc(C2=NN(c3ccc([N+](=O)[O-])cc3[N+](=O)[O-])C(c3cccs3)C2)cc1 (stereo not given) .
80.1 µM

Check MCF7 breast data and give TGI for Nc1nc(I)nc2c1ncn2C1OC(COS(N)(=O)=O)C(O)C1O (stereo not given) .
0.207 µM

Check MCF7 breast data and give TGI for CCCC(=O)OCC1OC(n2cnc3c(=S)nc[nH]c32)C(OC(=O)CCC)C1OC(=O)CCC (stereo not given) .
> 100 µM

Check MCF7 breast data and give TGI for CCCC/C=C/C/C=C/CCCCCCCCC(=O)OCC1CCCN2CCCCC12 (stereo not given) .
> 100 µM

Check MCF7 breast data and give TGI for "O=[N+]([O-])c1ccc2c(c1)S(=O)(=O)N1Cc3ccccc3CCN21" .
> 100 µM

Check MCF7 breast data and give TGI for "O=C(O)c1ccccc1/C=N/NC1=NCCN1" .
> 100 µM

Check MCF7 breast data and give TGI for O=C1CN(C(=O)C2CCCN2C(=O)C2CCCN2)C(=O)CN1 (stereo not given) .
> 100 µM

Check MCF7 breast data and give TGI for "Cc1cc2cc3c(cc2c(-c2ccc([N+](=O)[O-])cc2)n1)OCO3" .
> 100 µM

Check MCF7 breast data and give TGI for "Cc1cc(S(=O)(=O)Nc2nc(N)n(-c3ccccn3)n2)c(S)cc1Cl" .
> 100 µM

Check MCF7 breast data and give TGI for "O=S(=O)(NC1=NCCN1C(=S)SN1CCn2c1nsc2=S)c1cccc(Cl)c1" .
36.3 µM

Check MCF7 breast data and give TGI for "OCCCNc1nc(=S)[nH]c2[nH]ncc12" .
81.3 µM

Check MCF7 breast data and give TGI for CCCCCCCC(=O)OCC/C=C/C1OC1C1OC(=O)/C=C\C=C\c2nc(oc2C)/C=C(/C)CCC2OC2C1OC(=O)NC(C)=O (stereo not given) .
0.481 µM

Check MCF7 breast data and give TGI for "Clc1ccccc1-c1nc2ccc(C34CC5CC(CC(C5)C3)C4)cc2[nH]1" .
23.4 µM

----------
Exercise: for every item that follows, state its recorded TGI.
# System: CCRF-CEM leukemia
# protocol_description: NCI tumour cell line growth inhibition, 48 h

Note TGI for the compound shown: "Oc1c2cc(Cl)cc1COCc1cc(Cl)cc(c1O)COCc1cc(Cl)cc(c1O)COC2"
59.5 µM

Note TGI for the compound shown: "Cc1ccc(/C(Cl)=C/C=C(C#N)C#N)cc1"
> 100 µM

Note TGI for the compound shown: "Cc1nc(-c2cc3c(ccc4ccccc43)oc2=O)cs1"
> 100 µM

Note TGI for the compound shown: "O=C(NC12CC3CC(CC(F)(C3)C1)C2)c1ccccc1"
> 100 µM

Note TGI for the compound shown: "COc1cc2ncn(-c3cc(OCc4cccs4)c(C(N)=O)s3)c2cc1OC"
> 25 µM

Note TGI for the compound shown: "NC(=O)COC(=O)c1c(Cl)nc2sccn12"
> 31.6 µM

Note TGI for the compound shown: "O/N=C/c1ncccc1C1OCCO1"
> 100 µM

Note TGI for the compound shown: "O=C(O)c1nn(-c2ccccc2-c2n[nH]c(=O)[nH]c2=O)c(=O)[nH]c1=O"
> 100 µM

Note TGI for the compound shown: O=C1N=C(SC2OC(CO)C(O)C(O)C2O)S/C1=C\c1ccccc1 (configuration not stated)
> 100 µM

Note TGI for the compound shown: "O=C1c2cccc([N+](=O)[O-])c2C(=O)N1c1ncn[nH]1"
> 100 µM

Note TGI for the compound shown: "COc1cc2ncnc(Nc3cccc(Cl)c3)c2cc1OC"
19.6 µM

Note TGI for the compound shown: "COc1ccc2nc3c(C(=O)NCCN(C)C)cccc3nc2c1"
> 100 µM

// data source = PubChem BioAssay (NCI)
